Test system: HIV-1 pseudotyped virus
Test: HIV-1 pseudotyped virus assay (luciferase reporter gene, single cycle of infection)
Format: cell-based
Settings: Human immunodeficiency virus 1, CCR5, 72 h, read-out: Activity (antiviral activity, IC50)
From the text: In this example are illustrated experimental procedures for determining biological activity, such as antiviral activity. For determining biological activity, an HIV-1 infection assay was used to determine the antiviral potency for compounds of the present invention. […] The compounds of the present invention being tested for antiviral activity were serially diluted and dose responses determined in duplicate in two separate experiments. […]
pIC50: −log10 of the molar value.

# compound, pIC50
data = [
    ("COc1cc(OC)nc(-c2ccc(C(=O)C(=O)N3CCN(C(=O)c4ccccc4)C[C@H]3C)cc2)n1 [Example 254]", "< 5.30"),
    ("CC1CN(C(=O)c2ccccc2)CCN1S(=O)(=O)c1ccc(-n2cncn2)s1 (centres unmarked) [Example 109]", "< 5.30"),
    ("CC1CN(C(=O)c2ccccc2)CCN1S(=O)(=O)c1ccc(C(=O)n2ccnc2)cc1 (centres unmarked) [Example 249]", "< 5.30"),
    ("CC1CN(C(=O)c2ccccc2)CCN1C(=O)C(=O)c1ccc(-n2cccn2)cc1 (centres unmarked) [Example 240]", "> 5.30"),
    ("COc1cc(-c2cc(C)no2)ccc1C(=O)C(=O)N1CCN(C(=O)c2ccccc2)C[C@H]1C [Example 180]", "> 5.30"),
    ("Cc1ccc(-c2ccc(S(=O)(=O)N3CCN(C(=O)c4ccccc4)CC3C)s2)nn1 (centres unmarked) [Example 146]", "< 5.30"),
    ("COc1cc(C(=O)C(=O)N2CCN(C(=O)c3ccccc3)C[C@H]2C)ccc1-c1cnco1 [Example 175]", "> 5.30"),
    ("COc1cc(Br)ccc1C(=O)C(=O)N1CCN(C(=O)c2ccccc2)C[C@H]1C [Example 226]", "> 5.30"),
]
